Reference source: ChEMBL document CHEMBL6109134

target: PRMT5/MEP50 complex (Homo sapiens, UniProt O14744)
Sequence (O14744 whole entry): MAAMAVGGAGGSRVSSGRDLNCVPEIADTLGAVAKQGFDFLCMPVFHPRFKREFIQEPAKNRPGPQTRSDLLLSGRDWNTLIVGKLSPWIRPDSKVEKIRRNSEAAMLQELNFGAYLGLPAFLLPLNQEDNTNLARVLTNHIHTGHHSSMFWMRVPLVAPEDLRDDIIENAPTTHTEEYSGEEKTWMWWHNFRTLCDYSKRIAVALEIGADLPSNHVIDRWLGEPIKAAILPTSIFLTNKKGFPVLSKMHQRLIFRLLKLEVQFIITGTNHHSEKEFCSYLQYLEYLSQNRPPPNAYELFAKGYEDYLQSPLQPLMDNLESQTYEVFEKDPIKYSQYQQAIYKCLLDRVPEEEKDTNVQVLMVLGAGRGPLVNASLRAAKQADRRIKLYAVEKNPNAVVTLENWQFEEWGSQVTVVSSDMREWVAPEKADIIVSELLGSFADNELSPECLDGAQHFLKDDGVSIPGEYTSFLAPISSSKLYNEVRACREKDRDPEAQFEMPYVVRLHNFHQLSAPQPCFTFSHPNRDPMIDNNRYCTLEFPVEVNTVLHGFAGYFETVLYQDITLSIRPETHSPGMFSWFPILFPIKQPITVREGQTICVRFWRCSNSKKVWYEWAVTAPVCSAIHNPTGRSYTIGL
Sequence (Q9BQA1 whole entry, further chain): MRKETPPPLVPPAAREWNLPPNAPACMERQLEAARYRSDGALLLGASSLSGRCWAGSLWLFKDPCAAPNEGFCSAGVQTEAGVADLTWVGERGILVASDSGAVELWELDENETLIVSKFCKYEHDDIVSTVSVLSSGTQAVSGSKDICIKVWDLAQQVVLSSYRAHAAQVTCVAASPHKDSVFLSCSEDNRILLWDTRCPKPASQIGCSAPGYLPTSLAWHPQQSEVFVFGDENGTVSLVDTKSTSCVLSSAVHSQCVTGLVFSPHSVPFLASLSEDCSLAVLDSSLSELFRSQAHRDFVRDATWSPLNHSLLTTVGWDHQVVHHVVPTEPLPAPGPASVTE
Readout Type: Ki

// below: answered compounds
INSERT INTO assay_data (compound, subject_of_test, readout_type, result_value) VALUES
  ('C[C@H](c1ncccn1)N(Cc1ccc(C(F)(F)F)cn1)C(=O)c1ccc2nc(N)c3c(c2c1)COC3', 'PRMT5/MEP50 complex (Homo sapiens, UniProt O14744)', 'Ki', '< 0.1 nM'),
  ('C[C@H](c1ncccn1)N(Cc1ccc(C(F)(F)F)cn1)C(=O)c1ccc2nc(N)c3c(c2c1)CCC3', 'PRMT5/MEP50 complex (Homo sapiens, UniProt O14744)', 'Ki', '< 0.1 nM'),
  ('C[C@H]1OCc2c1c(N)nc1cnc(C(=O)N3CCOC[C@@H]3c3ccc(C(F)(F)F)cc3)cc21', 'PRMT5/MEP50 complex (Homo sapiens, UniProt O14744)', 'Ki', '< 0.1 nM'),
  ('CCN(Cc1ccc(C(F)(F)F)cn1)C(=O)c1ccc2nc(N)c3c(c2c1)COC3', 'PRMT5/MEP50 complex (Homo sapiens, UniProt O14744)', 'Ki', '< 0.1 nM'),
  ('C[C@H](c1ncccn1)N(Cc1ccc(C(F)(F)F)cn1)C(=O)c1cnc2nc(N)c3c(c2c1)COC3', 'PRMT5/MEP50 complex (Homo sapiens, UniProt O14744)', 'Ki', '< 0.1 nM'),
  ('C[C@H](c1ncccn1)N(Cc1ccc(C(F)(F)F)cn1)C(=O)c1cc2c3c(c(N)nc2cc1F)COC3', 'PRMT5/MEP50 complex (Homo sapiens, UniProt O14744)', 'Ki', '< 0.1 nM'),
  ('Nc1nc2ccc(C(=O)N3CCOCC3c3ccc(C(F)(F)F)cn3)cc2c2c1COC2 (racemic)', 'PRMT5/MEP50 complex (Homo sapiens, UniProt O14744)', 'Ki', '0.1 nM'),
  ('C[C@H](c1ncccn1)N(Cc1ccc(C(F)(F)F)cn1)C(=O)c1cc2c3c(c(N)nc2cn1)COC3', 'PRMT5/MEP50 complex (Homo sapiens, UniProt O14744)', 'Ki', '0.1 nM'),
  ('Cc1cc2cc(C(=O)N(Cc3ccc(C(F)(F)F)cn3)[C@H](C)c3ncccn3)ncc2nc1N', 'PRMT5/MEP50 complex (Homo sapiens, UniProt O14744)', 'Ki', '0.1 nM'),
  ('C[C@@H]1COC[C@H](c2ccc(C(F)(F)F)cc2)N1C(=O)c1cc2c3c(c(N)nc2cn1)COC3', 'PRMT5/MEP50 complex (Homo sapiens, UniProt O14744)', 'Ki', '< 0.1 nM');

Now consider the entry below.
Query block: # query: Ki | item Nc1nc2ccc(C(=O)N3CCOC[C@@H]3c3ccc(Cl)cc3)cc2c2c1COC2 | system: PRMT5/MEP50 complex (Homo sapiens, UniProt O14744)
Result block: < 0.1 nM
